- measured.target: wild-type DegS (Escherichia coli)
- assay.summary: biochemical
- Design: species or system E. coli
Where no end group is shown, it is not given here.

sequence	unit.symbol	EC50
DNRDGNVYQF	µM	50

###

- measured.target: wild-type DegS (Escherichia coli, UniProt P0AEE3)
- Sequence (P0AEE3 27-355): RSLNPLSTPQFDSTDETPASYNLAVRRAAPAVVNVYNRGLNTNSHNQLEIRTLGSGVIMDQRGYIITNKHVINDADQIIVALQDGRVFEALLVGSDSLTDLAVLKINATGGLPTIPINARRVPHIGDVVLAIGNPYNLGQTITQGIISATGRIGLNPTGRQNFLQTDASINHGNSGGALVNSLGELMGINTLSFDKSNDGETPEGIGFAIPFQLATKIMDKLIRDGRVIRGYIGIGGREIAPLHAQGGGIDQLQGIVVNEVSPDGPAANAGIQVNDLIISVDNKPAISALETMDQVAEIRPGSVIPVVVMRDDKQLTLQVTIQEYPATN
- assay.summary: biochemical
Where a SMILES comes first, the peptide text is derived from it.

molecule	EC50
NC(=O)CC[C@H](NC(=O)[C@@H](N)Cc1ccc(O)cc1)C(=O)N[C@@H](Cc1ccccc1)C(=O)O [YQF] (H-Tyr-Gln-Phe-OH)	260 µM
